// reported normalised cell number per item
# ASSAY PROCEDURE: differential killing of epithelial or mesenchymal cells, primary screen, imaging, PC-3E GFP, TEM4-18 mCherry, co-culture (AID 1345086);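 also: cells exposed to compound for 72 h before imaging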
# CONDITION: imaging cell counts, measured here: mesenchymal TEM4-18 mCherry cell survival, at 1 µM

INSERT INTO results (molecule, measure_name, result) VALUES
  ('COC1=C[C@@H]2[C@@H]3Cc4ccc(OC)c(O)c4[C@]2(CCN3C)CC1=O', 'normalised cell number', 1.03);

Consider now this further molecule.
## Task Look up normalised cell number: COc1cc([C@@H]2c3cc4c(cc3[C@@H](O)C3COC(=O)C32)OCO4)cc(OC)c1O (some centres undefined)
## Result 0.31

###

# ASSAY PROCEDURE: inhibition of 3D7 malaria parasite growth – strain 3D7 (AID 2306);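 also: 0% = DMSO wells and 100% = chloroquine plus artemisinin control wells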
# CONDITION: P. falciparum 3D7 erythrocytic growth, LDH absorbance, 72 h; at 2 µM; stronger effect = higher value
// reported growth inhibition per item
Use % as the unit, but write only the number.

INSERT INTO measurements (compound, units_symbol, result) VALUES
  ('O=C(/C=C/c1cc(F)cc(C(F)(F)F)c1)N1CCC(CN2CCC(c3c[nH]c4ccccc34)CC2)CC1', '%', 101),
  ('O=C(/C=C/c1ccc(Cl)c(Cl)c1)N1CCC(CN2CCC(c3c[nH]c4cc5c(cc34)OCO5)CC2)CC1', '%', 102),
  ('CCCN(CCC)CCOC(=O)C(OCC)(c1ccccc1)c1ccccc1', '%', 97),
  ('Clc1ccc2nccc(N3CCC(CN4CCC(c5c[nH]c6ccccc56)CC4)CC3)c2c1', '%', 101);

Consider now this further compound.
## Task Look up growth inhibition: N#Cc1c(Cl)cccc1Oc1ccc(S(=O)(=O)N2CCC(CN3CCC(c4c[nH]c5ccccc45)CC3)CC2)cc1
## Result 100

###

// reported fold change per item
# ASSAY PROCEDURE: sensitizers of A549 cells to miR-34 induction, primary screen, imaging, A549 dox-inducible miR-34, nuclei and caspase counts (AID 1347080)
# CONDITION: A549 miR-34 inducible, Hoechst nuclei count, 48 h; measured here: relative caspase fold change +Dox/-Dox
Respond with the number and no other words.

Some compounds with recorded fold change:
INSERT INTO results (compound, measure_name, result) VALUES
  ('Oc1ccc2c3c1O[C@H]1c4[nH]c5ccccc5c4C[C@@]4(O)[C@@H](C2)N(CC2CC2)CC[C@]314', 'fold change', 1.1),
  ('COc1ccc(-n2nc(C(F)(F)F)cc2-c2ccc(Cl)cc2)cc1', 'fold change', 0.729),
  ('O=C(O)CNC(=O)c1c(O)c2ccccc2n(Cc2ccccc2)c1=O', 'fold change', 0.358),
  ('N[C@@]1(C(=O)O)CC[C@@H](C(=O)O)C1', 'fold change', 2.1);

Consider now this further compound.
## Task Look up fold change: CN1C2CCC1CC(OC(c1ccccc1)c1ccc(Cl)cc1)C2 (stereo not given)
## Result 1.16

###

// reported score per item
# ASSAY PROCEDURE: suppressors of polyQ aggregation in yeast, 75Q-TubU reporter (AID 1593)
# CONDITION: Yeast 75Q polyglutamine aggregation reporter
Respond with the number and no other words.

Some compounds with recorded score:
INSERT INTO assay_data (compound, measure_name, result) VALUES
  ('C=C[C@H]1CN2CC[C@H]1C[C@@H]2[C@@H](OC(=O)OCC)c1ccnc2ccc(OC)cc12', 'score', 1.24),
  ('C[n+]1cc2c3c(ccc2c2ccc4cc5c(cc4c21)OCO5)OCO3', 'score', 0.8);

## Task Look up score: C[C@]12CCC(=O)C=C1CCC1C2CC[C@@]2(C)C1CC[C@@H]2O (stereo partly drawn)
## Result -1.11

## Task Look up score: CN1C2CCC1C(C(=O)O)C(OC(=O)c1ccccc1)C2 (stereo not drawn)
## Result 0.85

## Task Look up score: O=C1CCO1
## Result 1.2

## Task Look up score: N#C/C(=C\c1cccc(O)c1)C(=O)O
## Result 1.48

## Task Look up score: Cc1cc2c(C(C)C)c(O)c(O)c(C=O)c2c(O)c1-c1c(C)cc2c(C(C)C)c(O)c(O)c(C=O)c2c1O
## Result 1.78

## Task Look up score: Cc1cc(O)ccc1Cl
## Result 0.98

## Task Look up score: CC(C)CC(NC(=O)C(Cc1ccccc1)NC(=O)CNC(=O)CNC(=O)C(N)Cc1ccc(O)cc1)C(=O)O (stereo not drawn)
## Result 1.42

## Task Look up score: CCOC(=O)C1(c2ccccc2)CCN(C)CC1
## Result 1.03

## Task Look up score: CN1C(=O)C(O)N=C(c2ccccc2)c2cc(Cl)ccc21 (stereo not drawn)
## Result 1.21
